Parameter: Kd. Scope: all listed entries.
biological target: T1, biotinylated human Sortilin monomer (human, UniProt Q99523 78-755, limits assumed, biotinylated (Sulfo-NHS-biotin)); test: MSD-SET, Fab
T1 construct: monomer cut from the Fc fusion with IdeS; used unbiotinylated in solution in some formats; also called Bt-hSort; b-H Sort
Readout type: Kd (nM)

Binder	Recorded value
S-22-3 Fab (Fab, V domains shown, Fab by papain digestion) VH: QVQLVQSGAEVKKPGSSVKVSCKASGGTFRSYAISWVRQAPGQGLEWMGGIIPGFGTAWYAQKFQGRVTITADESTSTAYMELSSLRSEDTAVYYCARQGRKTGYYYYYGMDVWGQGTTVTVSS VL: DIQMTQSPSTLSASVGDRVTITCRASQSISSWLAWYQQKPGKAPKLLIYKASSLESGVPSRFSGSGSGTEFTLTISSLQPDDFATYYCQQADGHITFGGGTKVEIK	0.097
S-2-11 Fab (Fab, V domains shown, Fab by papain digestion) VH: QVQLVQSGAEVKKPGASVKVSCKASGYTFLAYYMHWVRQAPGQGLEWMGWINPSWGSTSYAQKFQGRVTMTRDTSISTAYMELSRLRSDDTAVYYCARGKRSSGWYEGYGMDVWGQGTTVTVSS VL: DIQMTQSPSSLSASVGDRVTITCRASQSISSYLNWYQQKPGKAPKLLIYAASSLQSGVPSRFSGSGSGTDFTLTISSLQPEDFATYYCQQSDVSPITFGGGTKVEIK	0.011
S-22-7 Fab (Fab, V domains shown, Fab by papain digestion) VH: QVQLVQSGAEVKKPGSSVKVSCKASGGTFSSYAISWVRQAPGQGLEWMGGIIPGFGRANYAQKFQGRVTITADESTSTAYMELSSLRSEDTAVYYCARQGRKTGYYYYYGMDVWGQGTTVTVSS VL: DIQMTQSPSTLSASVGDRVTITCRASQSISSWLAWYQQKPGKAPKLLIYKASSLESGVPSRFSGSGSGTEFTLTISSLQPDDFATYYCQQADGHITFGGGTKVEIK	0.098
